Molecular target: KRas G12D (Homo sapiens, UniProt P01116, G12D)
Sequence (P01116 1-169 isoform P01116-2 G12D): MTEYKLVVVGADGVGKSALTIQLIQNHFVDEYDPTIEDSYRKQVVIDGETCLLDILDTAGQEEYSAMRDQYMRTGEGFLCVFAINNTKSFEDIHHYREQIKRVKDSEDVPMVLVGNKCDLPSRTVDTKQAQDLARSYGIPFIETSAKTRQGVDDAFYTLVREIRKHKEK
Assay: biochemical
Conditions: Binding to KRas (IC50 nM) G12D, TR-FRET displacement, KRas G12D
measuredQuantity: IC50 (nM)
Use nM as the unit, but write only the number.

compound	unitsLabel	readoutValue
CCc1cccc2cccc(N3CCc4c(nc(OCC5(CN(C)C)CC5)nc4NC4CN(c5nccn6nc(C)cc56)C4)C3)c12 [Example 699]	nM	6150

Request: Recorded IC50 of CCc1c(F)ccc2cc(O)cc(N3CCc4c(nc(OC[C@@]56CCCN5C[C@H](F)C6)nc4NCC4NC(=O)NC4=O)C3)c12 (stereo partly drawn) [Example 377] , please.
Result: 4

* * *

Entries and their inhibition at 0.01 µM
Target: KRas Q61H (Homo sapiens, UniProt P01116, Q61H)
Sequence (P01116 1-169 isoform P01116-2 Q61H): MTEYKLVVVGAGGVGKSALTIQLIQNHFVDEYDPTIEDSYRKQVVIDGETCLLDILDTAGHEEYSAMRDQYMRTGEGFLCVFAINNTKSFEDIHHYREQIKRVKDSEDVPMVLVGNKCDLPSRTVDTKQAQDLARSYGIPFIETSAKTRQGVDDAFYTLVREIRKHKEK
Experiment: KRas binding assay (TR-FRET displacement), KRas Q61H
Details: single point, 10 nM compound

compound	tgt	inhibition at 0.01 µM
CCc1c(F)ccc2cc(O)cc(N3CCc4c(nc(OC[C@@]56CCCN5C[C@H](F)C6)nc4N4CCCn5nc(C(=O)NC(C)C)c(C)c5C4)C3)c12	KRas Q61H (Homo sapiens, UniProt P01116, Q61H)	89%
CCNc1cc2n(n1)CCCN(c1nc(OC[C@@]34CCCN3C[C@H](F)C4)nc3c1CCN(c1cc(O)cc4ccc(F)c(CC)c14)C3)C2	KRas Q61H (Homo sapiens, UniProt P01116, Q61H)	61%
CCc1c(F)ccc2cc(O)cc(N3CCc4c(nc(OC[C@@]56CCCN5C[C@H](F)C6)nc4N4Cc5cn(C(=O)N(C)C)nc5CC(C)C4)C3)c12 (stereo partly drawn)	KRas Q61H (Homo sapiens, UniProt P01116, Q61H)	62%

Request: I'm curious: which inhibition at 0.01 µM was measured for "CCc1c(F)ccc2cc(O)cc(N3CCc4c(nc(OC[C@@]56CCCN5C[C@H](F)C6)nc4N4CCCCn5nc(C(=O)N(C)C)cc5C4)C3)c12" tested on KRas Q61H (Homo sapiens, UniProt P01116, Q61H)?
Result: 98%

Request: Same read-out for "CCc1c(F)ccc2cc(O)cc(N3CCc4c(nc(OC[C@@]56CCCN5C[C@H](F)C6)nc4N4CCCn5nc(C(=O)NC)c(C)c5C4)C3)c12" ?
Result: 95%

Request: What do we get for "CCc1c(F)ccc2cc(O)cc(N3CCc4c(nc(OC[C@@]56CCCN5C[C@H](F)C6)nc4N4CCCn5nc(NC(C)C)cc5C4)C3)c12" ?
Result: 56%

* * *

System: MKN1 cells
Assay: Inhibition of KRas-mediated phosphorylation of ERK (Cisbio HTRF pERK), MKN1 cells
Format: cell-based
Settings: Homo sapiens, MKN-1, 3 hour compound incubation, Cisbio pERK HTRF
measuredQuantity: IC50 (nM)
Your answer is read as nM, so omit the unit and give the number.

Answered examples (8):
compound	measuredQuantity	readoutValue
CCc1c(F)ccc2cc(O)cc(N3CCc4c(nc(OC[C@@]56CCCN5C[C@H](F)C6)nc4N4CCCn5nc(P(C)(C)=O)cc5C4)C3)c12	IC50	10.9
CCc1c(NC)nn2c1CN(c1nc(OC[C@@]34CCCN3C[C@H](F)C4)nc3c1CCN(c1cc(O)cc4ccc(F)c(CC)c14)C3)CCC2	IC50	43.5
CCc1c(F)ccc2cc(O)cc(N3CCc4c(nc(OC[C@@]56CCCN5C[C@H](F)C6)nc4N4CCCn5nc(C(=O)N6CC7CC6C7)cc5C4)C3)c12	IC50	3.9
CCc1c(F)ccc2cc(O)cc(N3CCc4c(nc(OC[C@@]56CCCN5C[C@H](F)C6)nc4N4CCCn5nnc(Br)c5C4)C3)c12	IC50	30.5
CCc1c(F)ccc2cc(O)cc(N3CCc4c(nc(OC[C@@]56CCCN5C[C@H](F)C6)nc4N4CCCn5nc(C(=O)NCCOC)cc5C4)C3)c12	IC50	16.6
CCc1c(F)ccc2cc(O)cc(N3CCc4c(nc(OC[C@@]56CCCN5C[C@H](F)C6)nc4N4CCCn5nc(C(=O)N(C)C)c(COC)c5C4)C3)c12	IC50	1.4
CCc1c(F)ccc2cc(O)cc(N3CCc4c(nc(OCC56CCCN5C/C(=C\F)C6)nc4N4CCC[C@]5(C4)NC(=O)NC5=O)C3)c12 (stereo partly drawn)	IC50	0.1
CCc1c(F)ccc2cc(O)cc(N3CCc4c(nc(OCC56CCCN5C/C(=C\F)C6)nc4N4CCC[C@@](C)(O)C4)C3)c12 (stereo partly drawn)	IC50	0.4

Request: Give the measured IC50 of CCc1c(F)ccc2cc(O)cc(N3CCc4c(nc(OC[C@@]56CCCN5C[C@H](F)C6)nc4N4CCCn5nc(C(=O)N6CC7CNC(CO)C7C6)cc5C4)C3)c12 (stereo partly drawn) .
Result: 953

Request: Cool, now "CCNC(=O)c1nn2c(c1Cl)CN(c1nc(OC[C@@]34CCCN3C[C@H](F)C4)nc3c1CCN(c1cc(O)cc4ccc(F)c(CC)c14)C3)CCC2"
Result: 4.2

Request: Another: "CCc1c(F)ccc2cc(O)cc(N3CCc4c(nc(OC[C@@]56CCCN5C[C@H](F)C6)nc4N4CCCCn5nc(C(=O)NC(C)C)c(Cl)c5C4)C3)c12"
Result: 9.9

Request: Item: "CCc1c(F)ccc2cc(O)cc(N3CCc4c(nc(OC[C@@]56CCCN5C[C@H](F)C6)nc4N4CCCn5nc(C(=O)N6CC7CC(C6)N7)cc5C4)C3)c12"
Result: 155
